Tgt: PRMT5 (Homo sapiens, UniProt O14744)
Construct: purchased Viva (custom protein)
Sequence (O14744 whole entry): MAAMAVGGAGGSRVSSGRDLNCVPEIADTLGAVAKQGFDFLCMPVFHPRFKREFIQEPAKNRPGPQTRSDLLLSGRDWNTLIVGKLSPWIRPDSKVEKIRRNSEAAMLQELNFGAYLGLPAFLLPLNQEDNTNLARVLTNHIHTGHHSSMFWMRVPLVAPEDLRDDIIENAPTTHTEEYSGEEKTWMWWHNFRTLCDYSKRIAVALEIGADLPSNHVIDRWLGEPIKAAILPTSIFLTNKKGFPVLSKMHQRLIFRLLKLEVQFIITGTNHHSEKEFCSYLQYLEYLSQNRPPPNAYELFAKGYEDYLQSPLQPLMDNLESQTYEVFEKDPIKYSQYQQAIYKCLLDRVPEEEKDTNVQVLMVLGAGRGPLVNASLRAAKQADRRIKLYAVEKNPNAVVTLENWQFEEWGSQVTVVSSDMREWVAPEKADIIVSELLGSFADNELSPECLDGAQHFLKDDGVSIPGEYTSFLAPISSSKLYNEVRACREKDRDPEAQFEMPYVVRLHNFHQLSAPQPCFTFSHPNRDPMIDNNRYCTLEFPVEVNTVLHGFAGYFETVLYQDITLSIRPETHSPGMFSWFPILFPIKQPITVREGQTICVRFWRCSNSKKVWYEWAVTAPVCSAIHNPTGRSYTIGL
Sequence (Q9BQA1 whole entry partner): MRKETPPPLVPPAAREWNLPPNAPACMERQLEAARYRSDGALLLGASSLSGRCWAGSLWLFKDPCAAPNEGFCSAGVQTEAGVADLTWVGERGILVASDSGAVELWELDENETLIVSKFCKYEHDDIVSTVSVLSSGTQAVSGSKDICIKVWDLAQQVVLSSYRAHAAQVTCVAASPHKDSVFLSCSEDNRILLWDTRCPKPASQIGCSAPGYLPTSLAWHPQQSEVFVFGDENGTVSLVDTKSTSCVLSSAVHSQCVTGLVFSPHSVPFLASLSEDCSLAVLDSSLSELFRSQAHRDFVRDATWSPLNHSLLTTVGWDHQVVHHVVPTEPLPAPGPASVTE
Test: PRMT5 inhibition assay with no cofactor
Assay type: biochemical
Condition Parameters: against PRMT5 with no cofactor; read-out: No Co-factor IC50
Measurement Label: IC50

1) Cc1ncoc1COc1ccc2c(c1)CN[C@H]([C@H](O)CNC(=O)c1cc(NC3CC4(CCC4)C3)nc(N3CCN(C(C)C)CC3)c1)C2 : < 50 nM
2) CC(=O)N1CC(Nc2cc(C(=O)NCC[C@H]3Cc4ccc(OCc5ocnc5C)cc4CN3)nc(N3CCCCC3)n2)C1 (single isomer, unassigned) : 50 to 500 nM
3) Cc1ncoc1COc1ccc2c(c1)CN[C@H]([C@H](O)CNC(=O)c1cc(NC3CCC3)ccn1)C2 : 500 to 5000 nM
4) CC(=O)N1CC(Nc2cc(C(=O)NC[C@@H](O)[C@@H]3Cc4ccc(OCc5ocnc5C)cc4CN3)cc(N3CCN(C(C)C)CC3)n2)C1 : 50 to 500 nM
5) COc1cc(C(=O)NC[C@@H](O)[C@@H]2Cc3ccc(OCc4ocnc4C)cc3CN2)cc(NC2CCC2)n1 : 50 to 500 nM
6) CC(=O)N1CCC(Nc2cc(C(=O)NC[C@@H](O)[C@@H]3Cc4ccc(OCc5ocnc5C)cc4CN3)cc(N3CCCCC3)c2)CC1 : 50 to 500 nM
7) Cc1ncoc1COc1ccc2c(c1)CN[C@H]([C@H](O)CNC(=O)c1cc(NC3CC4(CCC4)C3)nc(N3CCCCC3)n1)C2 : 50 to 500 nM
8) CCOc1nc(N2CCN(C(=O)OC)CC2)ccc1C(=O)NC[C@@H](O)[C@@H]1Cc2ccc(OCc3ocnc3C)cc2CN1 : 50 to 500 nM
9) CC(=O)N1CCN(c2cc(C(=O)NC[C@@H](O)[C@@H]3Cc4ccc(OCc5ocnc5C)cc4CN3)cc(NC3CCC3)n2)CC1 : 50 to 500 nM
10) Cc1ncoc1COc1ccc2c(c1)CN[C@H]([C@H](O)CNC(=O)c1cc(NC3CC4(CCC4)C3)nc(N3CCN(C(=O)C4CC4)CC3)n1)C2 : < 50 nM
11) Cc1ncoc1COc1cc2c(cc1F)C[C@@H]([C@H](O)CNC(=O)c1ccnc(NC3CCC3)c1)NC2 : 500 to 5000 nM
12) CCOc1cc(C(=O)N2C3CCC2COC3)ccc1C(=O)NC[C@@H](O)[C@@H]1Cc2ccc(OCc3ccn[nH]3)cc2CN1 : 500 to 5000 nM
13) Cc1ncoc1COc1ccc2c(c1)CN[C@H]([C@H](O)CNC(=O)c1cc(NC3CCC3)nc(N3CCCCC3)c1)C2 : 50 to 500 nM
14) CCOc1cc(C(=O)N2C3CCC2COC3)ccc1C(=O)NC[C@@H](O)[C@@H]1Cc2ccc(OCc3ccnn3C)cc2CN1 : 500 to 5000 nM
